Entries and their protein stability index
EXPERIMENTAL_DETAILS: protein stability index of a GFP-peptide fusion (yeast GPS) (PSI 1-4); higher = more stable; sorted into four equal gates, so the index is relative within each strain
CONDITION_SET: pdr5∆

SEQUENCE_TEXT: ARRLKNRAARDRRAQRV [RPL19A]
protein stability index: 3.43
//
SEQUENCE_TEXT: KVLKSGSGVDSSKLQLT [RRP42]
protein stability index: 2.94
//
SEQUENCE_TEXT: KTAPIQESFVPNSERSG [YOR098C/NUP1]
protein stability index: 2.42
//
SEQUENCE_TEXT: PNVFDKDSYVRIANIEQ [YDL088C/ASM4]
protein stability index: 3.09
//
SEQUENCE_TEXT: PSIVFIDEIDAIGTKRY [RPT2]
protein stability index: 2.28
//
SEQUENCE_TEXT: VKIIRKSETSGRYASYR [RPB5]
protein stability index: 3.04
//
SEQUENCE_TEXT: DKKKGQNVTSETHSKKR [ITC1]
protein stability index: 3.12
//
SEQUENCE_TEXT: DTKIDQVNGNIRKVSND [SMC3]
protein stability index: 3.07
//
SEQUENCE_TEXT: ILLRYHHNDISNDSQSH [YCG1]
protein stability index: 1.28
//
SEQUENCE_TEXT: IDDRDYVGNKRLELAGQ [RET1]
protein stability index: 3.47
//
SEQUENCE_TEXT: LEKIHSIEVQSLPEFFT [SWI3]
protein stability index: 2.53
//
SEQUENCE_TEXT: AFVEFGASVIAGGQRIV [SWP82]
protein stability index: 2.35
//
SEQUENCE_TEXT: SAKMILLSDPTITIKSY [PRP8]
protein stability index: 1.91
//
SEQUENCE_TEXT: RNSKLLNTKSIQIDEET [MCD1]
protein stability index: 2.63
//
SEQUENCE_TEXT: EYIFEAHEIIKREEKAM [CDC53]
protein stability index: 2.39
//
SEQUENCE_TEXT: KNKENNTFTWNHSLQHQ [RPN4]
protein stability index: 2.34
//
SEQUENCE_TEXT: NIVHNFKERQMMVSYPK [AAR2]
protein stability index: 2.33
//
SEQUENCE_TEXT: MQVYLVPIERVAQLKPF [RPC37]
protein stability index: 1.77
//
SEQUENCE_TEXT: VSKEQFLKDADVECIKA [YJL039C/NUP192]
protein stability index: 1.61
//
SEQUENCE_TEXT: DSLRKLYVDSESTSSTE [MTW1]
protein stability index: 3.51
//
SEQUENCE_TEXT: SGRCDGYILEGEELAFY [RPS8A]
protein stability index: 3.44
//
SEQUENCE_TEXT: RSGSNAAASLPSKKLKT [RPC82]
protein stability index: 2.91
//
SEQUENCE_TEXT: AIIYQRGKDGKLHVAAK [YGL100W/SEH1]
protein stability index: 3.31
//
SEQUENCE_TEXT: MDIAERIAVLHQKTKTL [YGL172W/NUP49]
protein stability index: 1.67
//
SEQUENCE_TEXT: NFTCNRKILNFKKDLVI [SWI1]
protein stability index: 2.88
//
SEQUENCE_TEXT: NLLCYYNLRSLNLINAK [RPN3]
protein stability index: 1.71
//
SEQUENCE_TEXT: RLDSYKVIEQPITSETA [RPL25]
protein stability index: 2.31
//
SEQUENCE_TEXT: NAKKRVFKTHSYRGVDL [RPS15]
protein stability index: 2.15
//
SEQUENCE_TEXT: LKGLNGFPSAPQPLFME [YMR153W/NUP53]
protein stability index: 3.04
//
SEQUENCE_TEXT: MDFGVDPSMDPELAMAL [RPN10]
protein stability index: 3.15
//
SEQUENCE_TEXT: DLNPLKTLNLFKQIKSA [RPO31]
protein stability index: 1.37
//
SEQUENCE_TEXT: DASPDSLEALIDLCHDF [YCS4]
protein stability index: 2.9
//
SEQUENCE_TEXT: VSSSKNKKSEENEMIKP [SWP82]
protein stability index: 3.34
//
SEQUENCE_TEXT: PDMYERKVENIRTILVN [MED7]
protein stability index: 1.65
//
SEQUENCE_TEXT: YWQYKAGIPIGLKRSQL [SWP82]
protein stability index: 1.57
//
SEQUENCE_TEXT: QRIAKNDPEYMDTSDDA [DLS1]
protein stability index: 3.15
//
SEQUENCE_TEXT: AGGGESDSALILMYKGF [UBP6]
protein stability index: 3.45
//
SEQUENCE_TEXT: GVLLPTRIKLLLTKNVS [RPS6A]
protein stability index: 1.49
//
SEQUENCE_TEXT: GISRDIKALQDSLFKDV [YML103C/NUP188]
protein stability index: 1.99
//
SEQUENCE_TEXT: SVTVSQGNYVTEDIREG [YMR129W/POM152]
protein stability index: 2.91
//
SEQUENCE_TEXT: KHKKKHLKHENANDETT [RPB4]
protein stability index: 2.84
//
SEQUENCE_TEXT: HKSGKLSVKIGNVVMDI [RPC53]
protein stability index: 1.25
//
SEQUENCE_TEXT: IHIQSKENYPWELYTDF [POP3]
protein stability index: 3.16
//
SEQUENCE_TEXT: LDSNNNNSNSNNNDNNN [SWI1]
protein stability index: 2.74
//
SEQUENCE_TEXT: IADLDTEAEETSIHSTI [RRP43]
protein stability index: 2.56
//
SEQUENCE_TEXT: YRNFMVNSYRLNPNEYF [SWI3]
protein stability index: 1.45
//
SEQUENCE_TEXT: SKIFRFQNSKSASLFKQ [RPL24A]
protein stability index: 3.04
//
SEQUENCE_TEXT: DRTLPHFSKDDYSPESK [RPO21]
protein stability index: 3.22
//
SEQUENCE_TEXT: NLSSLIVEINNVSNTFN [YJL041W/NSP1]
protein stability index: 2.72
//
SEQUENCE_TEXT: TEDILKEISTRVFNAKD [YCS4]
protein stability index: 3.17
//
SEQUENCE_TEXT: DLPETGFFENIETEFLL [IRR1]
protein stability index: 3.18
//
SEQUENCE_TEXT: ILDKIFYGVLDQGNGWL [RPN6]
protein stability index: 2.65

Just for reference, the supplement of paper PMC9732359 is where these values come from.
